Kindly supply the reported mortality values for the records listed here.
system: Spodoptera litura; assay: Insecticidal activity against third-instar larval stage of prestarved Spodoptera litura in castor leaf assessed as mortality at 0.1% treated for 2 secs before larval infestation measured after 24 hr by feeding method; assay type: functional
Give just the number in %; leave the unit off.

Exercise: Output measured mortality for this item: CCn1cc(C(=O)N/N=C/c2ccc([N+](=O)[O-])cc2)c(=O)c2ccc(C)nc21
Solution: 90

Exercise: Report mortality, nothing else, for this compound: CCn1cc(C(=O)N/N=C/c2c3ccccc3cc3ccccc23)c(=O)c2ccc(C)nc21
Solution: 20

Exercise: Write down mortality measured for item CC1(C)C(C=C(Cl)Cl)C1C(=O)OC(C#N)c1cccc(Oc2ccccc2)c1 (stereo not drawn) [ALPHA-CYPERMETHRIN]
Solution: 100

Exercise: Name the recorded mortality of the item CCn1cc(C(=O)N/N=C/c2ccccc2[N+](=O)[O-])c(=O)c2ccc(C)nc21 in your answer.
Solution: 100

Exercise: Indicate its recorded mortality; the compound in question is CCn1cc(C(=O)N/N=C/c2cccc([N+](=O)[O-])c2)c(=O)c2ccc(C)nc21
Solution: 80

###

test system: Spodoptera litura; test: Insecticidal activity against third-instar larval stage of prestarved Spodoptera litura in castor leaf assessed as mortality at 0.1% treated for 2 secs before larval infestation measured after 24 hr by feeding method; assay type: functional
I'd appreciate it if you could supply mortality values for the items below.
Answer format: numeric, % implied, no suffix.

Exercise: # return recorded mortality for entry CCn1cc(C(=O)N/N=C/c2ccc(O)cc2)c(=O)c2ccc(C)nc21
Solution: 70

Exercise: Assign mortality to the following record: CCn1cc(C(=O)N/N=C/c2ccc(C)cc2)c(=O)c2ccc(C)nc21
Solution: 70

Exercise: // Input: CCn1cc(C(=O)NN=C2CCCCC2)c(=O)c2ccc(C)nc21 . Output its mortality only.
Solution: 70
